This section presents compounds with their documented GI50 values.
# System: RPMI-8226
# protocol notes: NCI tumour cell line growth inhibition, 48 h
Calls of active or inactive are those of the source. Rule as the data show it: active = GI50 up to about 1.1 µM and inactive = higher.

# compound, study target, GI50
data = [
    ("S=C(N1CCN(c2cccc(Cl)c2)CC1)N1CCN(c2cccc(Cl)c2)CC1", "RPMI-8226", "34.6 µM (inactive)"),
    ("C[N+](C)([O-])Cc1cccc(NC(=O)c2ccc(C(=O)Nc3cccc(C[N+](C)(C)[O-])c3)cc2)c1", "RPMI-8226", "> 100 µM (inactive)"),
    ("NC(CCCCNCc1ccccc1O)C(=O)O (stereo not drawn)", "RPMI-8226", "> 100 µM (inactive)"),
]

* * *

This section presents compounds with their documented GI50 values.
# Tested on: SF-295
# protocol notes: NCI tumour cell line growth inhibition, 48 h
Active and inactive are the calls of the source. Rule as the data show it: active = GI50 up to about 1.1 µM and inactive = higher.

# smiles representation, GI50
measured = [
    ("CCOC(=O)/C(Cl)=C(\\C)Nc1nc2c(ccc3ccccc32)s1", "> 100 µM (inactive)"),
    ("CC1(C)N=c2c(ncn2CCCO)=C(C(N)=O)N1", "> 100 µM (inactive)"),
    ("OCc1cccc(Nc2nc(O)c3[nH]cnc3n2)c1", "> 100 µM (inactive)"),
]

* * *

# Tested on: HOP-62
# protocol notes: NCI tumour cell line growth inhibition, 48 h
The source made the active and inactive calls. Rule as the data show it: active = GI50 up to about 1.1 µM and inactive = higher.

# smiles representation, GI50
records = [
    ("O=C(N/C(=C\\c1ccc(/C=C(\\NC(=O)c2ccccc2)c2nc3ccccc3[nH]2)cc1)c1nc2ccccc2[nH]1)c1ccccc1", "> 100 µM (inactive)"),
    ("Cc1cnc2[nH]c(-c3cccc(F)c3)cc(=O)c2c1", "0.0662 µM (active)"),
    ("COc1cc2c(cc1OC)CCc1cc(OC)c(OC)cc1CC2", "> 100 µM (inactive)"),
    ("CC(=O)Oc1ccc2c3c1[C@H]1O[C@H]1c1cccc(c1-3)[C@@H]1O[C@H]21", "5.19 µM (inactive)"),
    ("O=c1c2cccnc2ncn1CCCN1CCOCC1", "> 100 µM (inactive)"),
    ("c1ccc2c(c1)Cc1c(Cc3csc4ccccc34)ccc3cccc-2c13", "> 100 µM (inactive)"),
]

* * *

# Test system: RXF 393
# protocol notes: NCI tumour cell line growth inhibition, 48 h
Activity calls are given as the source filed them. Rule as the data show it: active = GI50 up to about 1.1 µM and inactive = higher.
Classes used: active, inactive

# compound, group label
measured = [
    ("O=[N+]([O-])c1cccc(/C=N/C23CC4CC(CC(C4)C2)C3)c1", "inactive"),
    ("COc1cc(C)c(S(=O)(=O)N(CCCN)OCCCN)c(C)c1C", "inactive"),
    ("O=C(O)c1c2c(cc3c(=O)c4ccccc4[nH]c13)CCCC2", "inactive"),
    ("O=C(/C=C/c1ccc(Cl)cc1)c1ccncc1", "inactive"),
    ("CCOC(=O)Cc1csc(Nc2ccccc2[N+](=O)[O-])n1", "inactive"),
    ("O=C(CC1(O)C(=O)Nc2c(Cl)ccc(Cl)c21)c1ccc(Cl)cc1 (stereo unspecified)", "inactive"),
    ("COc1ccc2c(c1)N(CCC1CCCCN1C)c1ccccc1S2 (stereo unspecified) [OXYRIDAZINE]", "inactive"),
    ("Clc1ccc(/C=N/c2ccc3c(c2)Cc2ccccc2-3)c(Cl)c1", "inactive"),
    ("CCNC(=O)O/N=C1\\CCC2[C@@H]3CC=C4C[C@@H](OC5CCCCO5)CC[C@]4(C)C3CC[C@]12C (stereo partly specified)", "inactive"),
    ("COc1cc(C(c2c(O)c3ccccc3oc2=O)c2c(O)c3ccccc3oc2=O)cc(Br)c1O", "inactive"),
    ("Cc1cnc2[nH]c(-c3cccc(F)c3)cc(=O)c2c1", "active"),
    ("C[C@H](N[C@H]1CCC[C@]1(O)C#Cc1ccc2c(c1)OCO2)c1ccccc1", "inactive"),
    ("C[C@]12OC[C@H](c3ccccc3)N1C(=O)C1[C@H]2CC12SCCS2 (stereo partly specified)", "inactive"),
    ("Cc1cc(O)nc(NN2C(Cl)C(=O)C2c2cccc(Cl)c2)n1 (stereo unspecified)", "inactive"),
    ("CC(C)[C@H]1NC(=O)[C@H]2N=C(O[C@@H]2C)[C@@H]2CCCN2C(=O)[C@H](Cc2ccccc2)NC(=O)[C@@H]2CSC(=N2)[C@@H](Cc2ccccc2)NC(=O)[C@@H]2CSC1=N2", "inactive"),
    ("CN(C)c1n/c(=N/c2ccc3ccccc3c2)ss1", "inactive"),
]

These measurements were taken from ChEMBL document CHEMBL1201862.
